Listed molecules paired with reported zone of inhibition at 1000 µg/mL
Tested on: Aspergillus oryzae
Measurement Notes: Antimicrobial activity against Aspergillus oryzae MTCC 3567 at 1000 ug/ml after 72 hrs by cup plate method
Type: functional
Study Conditions: MTCC 3567, 72 h, read-out: IZ
The answer consists of two parts: a number and, after it, its unit.

Check out these entries, answers already filled in.
[[record]]
molecule = "Cc1ccc2[nH]c(-c3ccccc3)c(C3C=C(c4ccccc4)Oc4nc5oc(=O)c(C#N)c(N)c5c(N)c43)c2c1 (centres undefined)"
readout_kind = "zone of inhibition at 1000 µg/mL"
measured_result = "8 mm"

[[record]]
molecule = "Cc1ccc(C2=CC(c3c(-c4ccccc4)[nH]c4ccc(C)cc34)c3c(nc4oc(=O)c(C#N)c(N)c4c3N)O2)cc1 (centres undefined)"
readout_kind = "zone of inhibition at 1000 µg/mL"
measured_result = "10 mm"

[[record]]
molecule = "Cc1ccc(C2=CC(c3c(-c4ccccc4)[nH]c4ccc(Cl)cc34)c3c(N)nc(=O)[nH]c3O2)cc1 (centres undefined)"
readout_kind = "zone of inhibition at 1000 µg/mL"
measured_result = "13 mm"


Consider now this further molecule.
Just so you know, measured zone of inhibition at 1000 µg/mL for Cc1ccc2[nH]c(-c3ccccc3)c(C3C=C(c4ccc(Cl)cc4)Oc4[nH]nc(N)c43)c2c1 (centres undefined) came out at 7 mm
